- System: PHBPU
- Measurement description: Post-emergence herbicidal action against PHBPU
- Assay type: in vivo, Pharbitis purpurea
- Study conditions: application rate 80 g/ha, rated visually about 3 weeks after treatment
- Protocol: [table] 2. Post-emergence herbicidal action against harmful plants and crop plant compatibility Seeds of monocotyledonous and dicotyledonous weeds and crop plants are placed in sandy loam in plastic or wood-fibre pots, covered with soil and cultivated in a greenhouse under controlled growth conditions. 2 to 3 weeks after sowing, the test plants are treated at the one-leaf stage. […]
Recorded endpoint: Herbicidal action against [%] PHBPU (%)
// units = %; emit number, no label

Compound	Measurement units	Herbicidal action against [%] PHBPU
N#Cc1cc(F)cc(C2=NOC(C(=O)N[C@H]3C=C[C@@H](C(=O)OCC(F)(F)F)C3)(C(F)(F)F)C2)c1 (some centres unmarked)	%	90
C=CC1(C(=O)NC2C=CC(C(=O)NS(=O)(=O)CC(=O)OC)C2)CC(c2cc(F)cc(F)c2)=NO1 (mixture of isomers)	%	80
CC(C)(C#N)NC(=O)C1C=CC(NC(=O)C2(C)CC(c3cc(F)cc(F)c3)=NO2)C1 (mixture of isomers)	%	90
COc1cc(OC)cc(C2=NOC(C(=O)NC3C=CC(C(=O)OCCCl)C3)(C(F)(F)F)C2)c1 (mixture of isomers)	%	80
CCOC(=O)C1C=CC(NC(=O)C2(C(F)(F)F)CC(c3cc(F)cc(F)c3)=NO2)C1 (mixture of isomers)	%	80

Tell me the measured Herbicidal action against [%] PHBPU of CCOC(=O)C1C=CC(NC(=O)C2(C)CC(c3cc(F)cc(C#N)c3)=NO2)C1 (mixture of isomers) , please. 80

Fill in the blank: the reported Herbicidal action against [%] PHBPU of CC1(C(=O)NC2C=CC(C(=O)NC(C)(C)C(F)(F)F)C2)CC(c2cc(F)cc(F)c2)=NO1 (mixture of isomers) is ____. 90

* * *

Reported Herbicidal action against [%] ABUTH is given for each of the following compounds.
- Tested on: ABUTH
- Measurement description: Post-emergence herbicidal action against ABUTH
- Type: in vivo, Abutilon theophrasti
- Study conditions: application rate 80 g/ha, rated visually about 3 weeks after treatment
State the result as a value with its unit after it.

# example entries with known answers
Compound	Result value
C=CC1(C(=O)NC2C=CC(C(=O)NC(C(=O)OC)C(C)C)C2)CC(c2cc(F)cc(F)c2)=NO1 (single isomer, unassigned)	80%
CC(C)C(C#N)NC(=O)C1C=CC(NC(=O)C2(C)CC(c3cc(F)cc(F)c3)=NO2)C1 (mixture of isomers)	80%

In the following, a different compound is considered.
Form field - read-out: Herbicidal action against [%] ABUTH; system: ABUTH; submitted item: N#Cc1cc(F)cc(C2=NOC(C(=O)NC3C=CC(C(=O)O)C3)(C(F)(F)F)C2)c1 (mixture of isomers) 90%

* * *

- Test system: PHBPU
- Measurement description: Post-emergence herbicidal action against PHBPU
- Format: in vivo, Pharbitis purpurea
- Study conditions: application rate 80 g/ha, rated visually about 3 weeks after treatment
Recorded endpoint: Herbicidal action against [%] PHBPU (%)
Reply with just the number (in %).

Compound	Recorded endpoint	Measurement units	Result value
O=C(OCC(F)(F)F)C1C=CC(NC(=O)C2(C(F)(F)F)CC(c3cc(F)cc(F)c3)=NO2)C1 (mixture of isomers)	Herbicidal action against [%] PHBPU	%	80

Returns the measured Herbicidal action against [%] PHBPU for the input compound. Input: O=C(OCC(F)(F)F)C1C=CC(NC(=O)C2(C(F)(F)F)CC(c3cccc(Cl)c3)=NO2)C1 (mixture of isomers) 80

Quick one: Herbicidal action against [%] PHBPU for C=CC1(C(=O)N[C@H]2CC=C(C(=O)O)C2)CC(c2cc(F)cc(F)c2)=NO1 (stereo partly drawn) ? 90

// returns reported Herbicidal action against [%] PHBPU for input CC1(C(=O)N[C@H]2C=C[C@@H](C(=O)N3CCCO3)C2)CC(c2cc(F)cc(F)c2)=NO1 (stereo partly drawn) 80

Recorded Herbicidal action against [%] PHBPU of COCCOC(=O)C1C=CC(NC(=O)C2(C(F)(F)F)CC(c3cc(F)cc(C#N)c3)=NO2)C1 (stereo not drawn) , please. 80

Quick check: Herbicidal action against [%] PHBPU of N#Cc1cc(F)cc(C2=NOC(C(=O)NC3C=CC(C(=O)O)C3)(C(F)(F)F)C2)c1 (mixture of isomers) ? 90
